- Test System: HiBit-BRG1 fusion protein (Homo sapiens)
- Construct: expressed in transfected cells
- Sequence (P51532 whole entry, the tested form may be a part): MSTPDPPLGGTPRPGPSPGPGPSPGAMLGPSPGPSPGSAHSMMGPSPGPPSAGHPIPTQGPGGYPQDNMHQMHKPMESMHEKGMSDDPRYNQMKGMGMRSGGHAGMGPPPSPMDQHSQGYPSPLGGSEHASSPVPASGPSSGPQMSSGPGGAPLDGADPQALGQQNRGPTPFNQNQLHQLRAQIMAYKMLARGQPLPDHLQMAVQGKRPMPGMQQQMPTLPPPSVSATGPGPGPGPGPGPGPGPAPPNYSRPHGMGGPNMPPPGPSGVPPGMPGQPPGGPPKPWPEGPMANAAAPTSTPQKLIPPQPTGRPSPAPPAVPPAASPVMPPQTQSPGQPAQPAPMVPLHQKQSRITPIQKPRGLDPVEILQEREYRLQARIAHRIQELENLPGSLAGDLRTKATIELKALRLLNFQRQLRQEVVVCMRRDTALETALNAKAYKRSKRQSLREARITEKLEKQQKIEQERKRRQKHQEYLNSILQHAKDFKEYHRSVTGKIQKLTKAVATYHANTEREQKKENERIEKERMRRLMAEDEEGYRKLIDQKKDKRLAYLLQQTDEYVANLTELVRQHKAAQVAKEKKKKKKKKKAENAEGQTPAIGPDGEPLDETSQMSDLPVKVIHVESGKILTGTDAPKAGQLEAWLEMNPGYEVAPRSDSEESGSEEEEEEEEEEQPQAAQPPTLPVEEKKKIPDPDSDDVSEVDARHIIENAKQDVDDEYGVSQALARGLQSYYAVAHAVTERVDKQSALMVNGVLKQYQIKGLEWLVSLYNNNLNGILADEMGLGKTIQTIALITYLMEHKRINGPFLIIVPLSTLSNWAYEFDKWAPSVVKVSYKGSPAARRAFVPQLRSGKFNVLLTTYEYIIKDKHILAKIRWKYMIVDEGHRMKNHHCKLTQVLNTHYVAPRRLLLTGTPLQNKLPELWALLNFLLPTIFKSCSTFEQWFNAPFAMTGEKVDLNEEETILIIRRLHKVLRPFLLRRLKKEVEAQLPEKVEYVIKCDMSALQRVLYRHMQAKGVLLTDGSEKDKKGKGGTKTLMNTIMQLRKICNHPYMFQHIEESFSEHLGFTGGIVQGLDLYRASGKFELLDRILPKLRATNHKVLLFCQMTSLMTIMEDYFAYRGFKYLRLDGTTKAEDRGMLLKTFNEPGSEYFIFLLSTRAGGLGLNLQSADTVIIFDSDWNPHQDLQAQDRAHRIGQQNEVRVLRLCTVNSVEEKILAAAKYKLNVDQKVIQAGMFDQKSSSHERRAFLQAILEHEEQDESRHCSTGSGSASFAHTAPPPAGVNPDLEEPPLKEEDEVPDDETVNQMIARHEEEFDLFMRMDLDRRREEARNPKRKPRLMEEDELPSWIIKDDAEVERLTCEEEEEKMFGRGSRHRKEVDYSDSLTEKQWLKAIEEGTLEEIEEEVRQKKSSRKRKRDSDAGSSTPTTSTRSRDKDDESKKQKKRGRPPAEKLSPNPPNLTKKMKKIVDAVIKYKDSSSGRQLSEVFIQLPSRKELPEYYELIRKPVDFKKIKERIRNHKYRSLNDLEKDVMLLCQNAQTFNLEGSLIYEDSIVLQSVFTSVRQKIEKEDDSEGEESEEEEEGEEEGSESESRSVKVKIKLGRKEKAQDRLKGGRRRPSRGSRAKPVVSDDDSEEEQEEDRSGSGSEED
- Assay Details: HiBiT-BRG1 cell-based degradation assay (Nano-Glo HiBiT Lytic Detection, 24 h)
- Condition Set: HeLa cells expressing HiBit-BRG1 and LgBit, read-out: BRG1 HiBit Degradation IC50
Where a name gives a salt, the structure may show the parent alone.
Observed Property: DC50

CS(=O)(=O)n1ccc(C(=O)NCC(=O)Nc2nc(-c3cccc(-c4ccnc(C5(C(=O)NCCCCCCCCNC(=O)COc6cccc7c6C(=O)N(C6CCC(=O)NC6=O)C7=O)CC5)c4)c3)cs2)c1 (centres unmarked)    100 to 1000 nM
CS(=O)(=O)n1ccc(C(=O)NCC(=O)Nc2nc(-c3cccc(-c4ccnc(C5(C(=O)NCCCCCCNc6ccc7c(c6)CN(C6CCC(=O)NC6=O)C7=O)CC5)c4)c3)cs2)c1 (centres unmarked)    < 100 nM
CS(=O)(=O)n1ccc(C(=O)NCC(=O)Nc2nc(C3CCCN(C(=O)CCN4CCN(c5ccc6c(c5)C(=O)N(C5CCC(=O)NC5=O)C6=O)CC4)C3)cs2)c1 (centres unmarked) [Compound 146, formate]    > 10000 nM
CS(=O)(=O)n1ccc(C(=O)NCC(=O)Nc2nc(-c3cccc(-c4ccnc(C5(C(=O)NCCCCS(=O)(=O)CCCNc6cccc7c6C(=O)N(C6CCC(=O)NC6=O)C7=O)CC5)c4)c3)cs2)c1 (centres unmarked)    100 to 1000 nM
CN(CC(=O)NCCCCCCCCNC(=O)COc1cccc2c1C(=O)N(C1CCC(=O)NC1=O)C2=O)c1cc(-c2cccc(-c3csc(NC(=O)CNC(=O)c4ccn(S(C)(=O)=O)c4)n3)c2)ccn1 (centres unmarked)    > 10000 nM
